The reported measurements were obtained from patent US20040220384A1.

Target: human GPR8 (human, UniProt P48146 1-333)
Sequence (P48146 whole entry): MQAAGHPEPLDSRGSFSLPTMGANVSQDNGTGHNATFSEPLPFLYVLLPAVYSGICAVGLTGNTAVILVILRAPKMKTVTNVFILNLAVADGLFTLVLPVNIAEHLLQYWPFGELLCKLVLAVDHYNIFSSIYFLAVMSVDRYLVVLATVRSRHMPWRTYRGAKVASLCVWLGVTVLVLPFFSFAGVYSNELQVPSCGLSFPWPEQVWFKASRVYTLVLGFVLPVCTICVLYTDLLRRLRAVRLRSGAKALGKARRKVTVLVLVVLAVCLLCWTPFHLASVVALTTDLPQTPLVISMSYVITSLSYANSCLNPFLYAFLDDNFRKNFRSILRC
Assay: cell-based or functional assay
Non-standard residues stand in square brackets, D forms with d. No end group written: not given here. Trp(6-Br) = N[C@@H](Cc1c[nH]c2cc(Br)ccc12)C(=O)O; dTrp(6-Br) = N[C@H](Cc1c[nH]c2cc(Br)ccc12)C(=O)O
One threshold, 30 nM, splits the recorded IC50 of intracellular cAMP production suppression (cAMP production inhibition rate) values: lower ones are true, equal or higher ones are false.

Known results for binders:
Binder	Classification
WYKPAAGSHHYSVGRAAGLLSSFH (also called rat GPR7 ligand A) [Trp1-rat GPR7L(24)]	true
[Trp(6-Br)]YKPAAGHSSYSVGRAAGLLSGLRRSPYA [LTrp(6Br)1-human GPR7L(29)]	false
WYKPTAGQGYYSVGRAAGLLSGFHRSPYA (also called bovine GPR7 ligand B; non-brominated GPR7L) [Trp1-bovine GPR7L(29)]	true

### Prompt is_below(IC50 of intracellular cAMP production suppression (cAMP production inhibition rate), 30 nM) for [dTrp(6-Br)]YKPAAGHSSYSVGRAAGLLSGLRRSPYA [DTrp(6Br)1-human GPR7L(29)] ?
### Response false

### Prompt is_below(IC50 of intracellular cAMP production suppression (cAMP production inhibition rate), 30 nM) for [Trp(6-Br)]YKPTAGQGYYSVGRAAGLLSGFHRSPYA [LTrp(6Br)1-bovine GPR7L(29)] ?
### Response true

### Prompt is_below(IC50 of intracellular cAMP production suppression (cAMP production inhibition rate), 30 nM) for WYKPAAGSHHYSVGRAAGLLSSFHRFPST (also called rat GPR7 ligand B) [Trp1-rat GPR7L(29)] ?
### Response true

### Prompt is_below(IC50 of intracellular cAMP production suppression (cAMP production inhibition rate), 30 nM) for [dTrp(6-Br)]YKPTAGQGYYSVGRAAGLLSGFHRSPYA [DTrp(6Br)1-bovine GPR7L(29)] ?
### Response false
